molecular target: Gamma-secretase; test: Inhibition of gamma secretase (unknown origin) mediated Notch signaling by cell based luciferase reporter gene assay
pIC50: −log10 of the molar value.

{"smiles.code": "C[C@H](NC(=O)Cc1cc(F)cc(F)c1)C(=O)N[C@H](C(=O)OC(C)(C)C)c1ccccc1", "pIC50": 6.30}

###

target: Gamma-secretase; test: Inhibition of gamma secretase (unknown origin); assay type: protein-complex assay, Homo sapiens
pIC50: −log10 of the molar value.

{"smiles.code": "CC(C)[C@H](O)C(=O)N[C@@H](C)C(=O)N[C@@H]1C(=O)N(C)CCc2ccccc21", "tested.target": "Gamma-secretase", "pIC50": "7.92 to 7.96"}

Data credit: ChEMBL document CHEMBL4428029
